Ref: patent US8569511B2

Assay: Pharmacokinetics in mice (iv and po)
Format: in vivo
Settings: mouse, plasma, iv, 5.0 mg/kg
Procedure: Pharmacokinetic parameters were determined by dosing mice by oral (“po”) and intravenous (“iv”) administration of two representative disclosed compounds. The vehicle was 1% DMSO, 10% ethanol, 35% PEG 400, and the balance H2O. […] The concentration of compound was determined at the indicated time points for each sample using mass spectrometry. […] PK parameters were calculated using WinNonLin (Pharsight Products, Saint Louis, Mo.). […] The level detected at 0.08 hr was 9 ng/ml±5.0 ng/ml. […]
READOUT: clearance (mL/min/kg)

MOLECULE	READOUT	REPORTED MEASUREMENT
O=C(Nc1ccc2[nH]nc(-c3nc4ccc(N5CCOCC5)cc4[nH]3)c2c1)C1CC1(F)F (centres unmarked) [Compound 1]	clearance	161
CC1CN(c2ccc3nc(-c4n[nH]c5ccc(NC(=O)C6CC6(F)F)cc45)[nH]c3c2)CCO1 (centres unmarked) [Compound 2]	clearance	65
